Data origin: the OPERA property sets (Mansouri et al. 2018)

reported-metric: melting point (°C)
Numbers only, in °C.

compound	value-observed
Cc1ccc(S(=O)(=O)c2ccc(C)cc2)cc1	159
CC(CCl)OC(C)CCl (stereo not drawn)	-97
O=S(=O)(O)CCCNC1CCCCC1	302
C=CCC(C(=O)NC(N)=O)C(C)C (stereo not drawn)	194
CC(=O)OCC(=O)O	67.5

Provide melting point values for the following items, in order.
1. N#CC1CC2C=CC1C2 (stereo not drawn)
2. C[C@@H]1O[C@@H](O)[C@H](O)[C@H](O)[C@H]1O
3. N#CC(C#N)=C1c2cc([N+](=O)[O-])ccc2-c2c1cc([N+](=O)[O-])cc2[N+](=O)[O-]
4. COc1ccc(/C=C/NC=O)cc1

Result:
[13, 140, 267, 132]

Parameters: items (list). Returns: melting point for each item.
1. C[C@@H]1CC[C@H]2C(C)(C)[C@H]3C[C@@]12CC[C@@]3(C)O
2. Cc1ccc2cccnc2c1
3. CCCCCCCCCCCCCCCCOCC(O)CO (stereo not drawn)
4. N=C(NCCCCCCNC(=N)NC(=N)Nc1ccc(Cl)cc1)NC(=N)Nc1ccc(Cl)cc1

Result:
[86, 39, 64, 134]

Report melting point for each item below.
1. CC(=O)[C@@]12O[C@](C)(c3ccccc3)O[C@@H]1C[C@H]1[C@@H]3CCC4=CC(=O)CC[C@]4(C)[C@H]3CC[C@@]12C
2. CCOC(=O)c1c(Cl)c(Cl)c(Cl)c(Cl)c1C(=O)O
3. O=C(O)c1nc[nH]c1C(=O)O
4. CC=NNc1ccc([N+](=O)[O-])cc1[N+](=O)[O-]
5. NC(N)=O.O=P(O)(O)O
6. C#CCCCCCCCCC
7. CCOC(=O)C=Cc1ccc([N+](=O)[O-])cc1

Result:
1. 150
2. 94.5
3. 288
4. 166
5. 120
6. -25
7. 139

Below are 5 compounds. Give each one its melting point.
1. C[C@H]1C[C@H]2[C@@H]3CCC4=CC(=O)C=C[C@]4(C)[C@H]3C(=O)C[C@]2(C)[C@@]1(O)C(=O)CO
2. Fc1c(F)c(F)c(C(F)(F)F)c(F)c1F
3. CCCCCOC(=O)CCCC
4. O=C(CI)c1ccccc1
5. Clc1ccc2c(c1)Oc1ccccc1O2

Result:
1. 202
2. -65.6
3. -78.8
4. 34.4
5. 88
